# Measured target: UniProtKB P29274
# Test name: Luciferase reporter assay (HEK293-A2AR-luc2p/CRE/Hygro cells, 3 nM CGS21680)
# Condition notes: 3 nM CGS21680, 5 h incubation
Observation type: IC50 (nM)
Numbers only, in nM.

Consider the following illustrative entries.
COCCOc1ccc(N2CCN(C(=O)C(C)(c3ccccc3)n3ncc4c3nc(N)n3nc(-c5ccco5)nc43)CC2)cc1 (stereo not drawn)	6.2
CCCC(C(=O)N1CCN(c2ccc(OCCOC)cc2)CC1)n1cc2c(nc(N)n3nc(-c4ccco4)nc23)n1 (single isomer, unassigned) [Compound C5a]	55

Kindly consider the entry below.
In: Please give the measured IC50 for this compound: COCCOc1ccc(N2CCN(C(=O)C(CC(C)C)n3ncc4c3nc(N)n3nc(-c5ccco5)nc43)CC2)cc1 (stereo not drawn) [Compound A16]
Out: 1.3

* * *

# Measured target: human A2A receptor (A2AR) (Homo sapiens, UniProt P29274)
# Sequence (P29274 whole entry): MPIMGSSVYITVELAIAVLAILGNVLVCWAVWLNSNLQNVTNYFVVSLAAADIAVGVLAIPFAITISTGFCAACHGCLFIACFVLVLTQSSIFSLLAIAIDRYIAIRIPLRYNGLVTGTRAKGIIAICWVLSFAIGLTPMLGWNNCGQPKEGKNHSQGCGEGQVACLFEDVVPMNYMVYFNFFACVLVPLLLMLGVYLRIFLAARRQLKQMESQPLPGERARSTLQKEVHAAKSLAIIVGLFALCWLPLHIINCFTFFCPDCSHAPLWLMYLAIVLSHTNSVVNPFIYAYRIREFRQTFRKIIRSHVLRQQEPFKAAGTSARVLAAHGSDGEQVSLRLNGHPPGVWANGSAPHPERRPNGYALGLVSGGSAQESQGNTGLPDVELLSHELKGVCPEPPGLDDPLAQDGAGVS
# Test name: Luciferase reporter assay (HEK293-A2AR-luc2p/CRE/Hygro cells, 3 nM CGS21680)
# Condition notes: 3 nM CGS21680, 5 h incubation
So I've got a bunch of compounds here, and I need their pIC50 values.
Numbers only, as −log10 of the molar value.

Sample answers from the record:
CC(C(=O)N1CCN(c2ccccc2C(=O)NCC2(O)COC2)CC1)(c1ccccc1)n1ncc2c1nc(N)n1nc(-c3ccco3)nc21 (stereo not drawn)	7.60
CCC(C(=O)N1CCN(c2ccc(OCCOC)cc2)CC1)n1cc2c(nc(N)n3nc(-c4ccco4)nc23)n1 (stereo not drawn)	6.85
CC(C(=O)N1CCN(c2ccc(C(=O)NCC3(O)COC3)cc2)CC1)(c1ccccc1)n1ncc2c1nc(N)n1nc(-c3ccco3)nc21 (stereo not drawn)	8.43
CCCC(C(=O)N1CCN(c2ccc(OCCOC)cc2F)CC1)n1ncc2c1nc(N)n1nc(-c3ccco3)nc21 (single isomer, unassigned) [Compound A24b]	7.10
COCCOc1ccc(N2CCN(C(=O)C(C)n3cc4c(nc(N)n5nc(-c6ccco6)nc45)n3)CC2)cc1 (single isomer, unassigned) [Compound C1a]	7.24

In the following, a different compound is considered.
In: Suppose we examine the compound CC(C(=O)N1CCN(c2ccc(OCCCN3CCCC3)cc2)CC1)(c1ccccc1)n1ncc2c1nc(N)n1nc(-c3ccco3)nc21 (stereo not drawn) ; what pIC50 value has been reported?
Out: 8.15

* * *

Please provide measured pIC50 for the entries that follow.
# Measured target: UniProt:P29274
# Test name: Luciferase reporter assay (HEK293-A2AR-luc2p/CRE/Hygro cells, 3 nM CGS21680)
# Condition notes: 3 nM CGS21680, 5 h incubation
# Method: HEK293 cells were maintained in Dulbecco's modified Eagle's medium (DMEM, Gibco) supplemented with 10% fetal bovine serum (FBS, Thermo Scientific), 100 units/mL penicillin (Gibco), and 0.1 mg/mL streptomycin (Gibco) in a humidified 37° C. environment with 5% C02. Plasmid encoding wild-type human A2A receptor (A2AR) (in pcDNA3.1) was synthesized by Genscript (Nanjing, China). […] Expression level of A2AR in each single cell clone was determined using immunoblotting and FACS method. […]
One number for each entry, as −log10 of the molar value.

CN1CCN(CCOc2ccc(N3CCN(C(=O)[C@](C)(c4ccccc4)n4ncc5c4nc(N)n4nc(-c6ccco6)nc54)CC3)cc2)CC1 [Compound A81a]	8.10

Consider the following items and state reported pIC50 for each.
1. COCCOc1ccc(N2CCN(C(=O)[C@](C)(c3ccccc3)n3ncc4c3nc(N)n3nc(-c5ccco5)nc43)CC2)cc1F [Compound A66a]
2. COCCOc1ccc(N2CCN(C(=O)Cn3ncc4c3nc(N)n3nc(-c5ccco5)nc43)CC2)cc1 [Compound D1]
3. CN(C)CCOc1ccc(N2CCN(C(=O)C(C)(c3ccccc3)n3ncc4c3nc(N)n3nc(-c5ccco5)nc43)CC2)cc1 (stereo not drawn) [Compound A71]
4. Nc1nc2c(cnn2C(C(=O)N2CCc3ccccc3C2)c2ccccc2)c2nc(-c3ccco3)nn12 (single isomer, unassigned) [Compound B3b]
5. CCCC(C(=O)N1CCN(c2ccc(OCCOCCOC)cc2)CC1)n1ncc2c1nc(N)n1nc(-c3ccco3)nc21 (single isomer, unassigned) [Compound A6b]

Out:
1: 7.77; 2: 7.57; 3: 8.12; 4: 9.30; 5: 6.87
